Target: T1, human TNFR2 on the surface of CHO-TNFR2 cells (human, UniProt P20333 23-461)
T1 construct: whole, on cells
T1 sequence (looked up): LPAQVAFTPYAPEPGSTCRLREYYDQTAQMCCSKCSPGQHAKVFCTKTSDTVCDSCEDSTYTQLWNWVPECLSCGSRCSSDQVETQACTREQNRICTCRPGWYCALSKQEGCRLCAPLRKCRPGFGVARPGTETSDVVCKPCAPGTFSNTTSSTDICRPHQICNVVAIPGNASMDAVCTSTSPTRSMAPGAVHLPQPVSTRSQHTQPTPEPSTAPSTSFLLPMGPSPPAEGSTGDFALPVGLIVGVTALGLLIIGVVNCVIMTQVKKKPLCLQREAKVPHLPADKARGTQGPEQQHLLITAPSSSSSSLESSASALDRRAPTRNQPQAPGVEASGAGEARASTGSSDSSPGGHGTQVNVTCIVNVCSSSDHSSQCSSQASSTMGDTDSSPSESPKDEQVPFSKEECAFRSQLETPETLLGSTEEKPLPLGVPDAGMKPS
Test: flow cytometry on CHO-TNFR2 cells; area under the MFI fold curve
Below is a list of entries, each paired with its recorded AUC value.
# answer = number (no unit)

INSERT INTO assay_data (binder, result_value) VALUES
  ('224-Hu5 (antibody, V domains shown, Humanized form of #224; also called VH9 + VL9) VH: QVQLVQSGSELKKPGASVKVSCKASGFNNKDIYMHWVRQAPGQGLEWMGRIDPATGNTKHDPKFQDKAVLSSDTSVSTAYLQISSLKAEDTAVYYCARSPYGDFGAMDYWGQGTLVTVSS VL: DIQMTQSPSSLSASVGDRVTITCTASSSVSSNYLHWYQQKPGKAPKLLIYSTSNLPSGVPSRFSGSGSGTDYSLTISSLQPEDFATYYCHQYHRSPWTFGQGTKVEIK', 593),
  ('001-Hu1 (antibody, V domains shown, Humanized form of #001; also called VH1 + VL1) VH: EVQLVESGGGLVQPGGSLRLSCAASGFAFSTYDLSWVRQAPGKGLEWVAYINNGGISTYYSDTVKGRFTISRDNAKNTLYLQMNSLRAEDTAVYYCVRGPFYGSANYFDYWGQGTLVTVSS VL: DIQMTQSPSSLSASVGDRVTITCRTSESIYSNLPWYQQKPGKAPKLLLYDATKLAEGVPSRFSGSGSGTDYTLTISSLQPEDFATYYCQHFWVTPWTFGQGTKVEIK', 458),
  ('219-Hu4 (antibody, V domains shown, also called VH6 + VL5) VH: QVQLVQSGAEVKKPGSSVKVSCKASGYSFTNYWMNWVKQAPGQGLEWIGMIHPSDTETRLNQNFKDKATLTVDKSTSTAYMELSSLRSEDTAVYYCARGEGLGAARSVSMDYWGQGTLVTVSS VL: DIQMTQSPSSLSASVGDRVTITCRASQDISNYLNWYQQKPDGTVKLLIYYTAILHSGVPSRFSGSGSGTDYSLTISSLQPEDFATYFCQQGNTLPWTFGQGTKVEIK', 493),
  ('219-Hu2 (antibody, V domains shown, also called VH4 + VL5) VH: QVQLVQSGAEVKKPGSSVKVSCKASGYSFTNYWMNWVRQAPGQGLEWMGMIHPSDTETRLNQNFKDKATITADKSTSTAYMELSSLRSEDTAVYYCARGEGLGAARSVSMDYWGQGTLVTVSS VL: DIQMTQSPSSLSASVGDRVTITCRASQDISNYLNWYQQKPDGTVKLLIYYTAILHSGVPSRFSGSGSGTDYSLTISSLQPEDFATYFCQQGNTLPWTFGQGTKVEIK', 534);

Kindly consider the entry below.
query: Quick one: AUC of 224-WT (antibody, V domains shown, Human-murine chimeric wild-type molecule; also called human-murine chimeric antibody WT of #224) VH: EVQLQESGPEIVKPGASVKLSCTASGFNNKDIYMHWVKQRPEQGLEWIGRIDPATGNTKHDPKFQDKATLSSDTSSNTAYLQFSSLTSEDTAVYYCAHSPYGDFGAMDYWGQGTTVTVSS VL: DIQMTQSPAIMSASLGERVTMTCTASSSVSSNYLHWYQQKPGSSPKLWIYSTSNLPSGVPARFSGSGSGTSYSLTISSMEAEDAATYYCHQYHRSPWTFGGGTKLEIK ?
result: 667
